In this section we review reported Cmax values for a set of molecules.
- ASSAY TEXT: Pharmacokinetic study of RXFP2 mAbs in rat
- Format: in vivo, Wistar Han rats
- CONDITION: male Wistar Han rats, 1 mg/kg s.c., n = 3, mean ± SD
RESULT TYPE: Cmax

| MOLECULE | RESULT |
| --- | --- |
| 2D4: RXFP2 monoclonal antibody from hybridoma, recombinantly expressed in a rat IgG2b backbone (antibody, V domains shown) VH: QVQLKESGPGLVAPSQSLSITCTVSGFSLTTYGISWVRQPPGKGLEWLGVIWTGGGTNYNSALKSRLSISKDNSKSQVFLKMNSLQTDDTARYYCARTEGYYVMDYWGQGTSVTVSS VL: DIQMTQSPASLSVSVGETVTITCRASENIYSNLVWYQQKQGKSPQLLVYAATNLADGVPSRFSGSGSGTQYSLKINNLQSEDFGTYYCQHFWGPPWTFGGGTKLEIK | 7360 ± 1540 ng/mL |
| 1F2: RXFP2 monoclonal antibody from hybridoma, recombinantly expressed in a rat IgG2b backbone (antibody, V domains shown) VH: QVQLKQSGPGLVQPSQSLSITCTVSGFSLTAYGVNWVRQSPGKGLEWLGVIWSGGNTDYNAPFISRLSITKDNSKSQVFFKMNSLEADDTAIYYCARAKGYYAMDYWGQGTSVTVSS VL: DIQMTQSPASLSVSVGESVTITCRATENIYSNLVWYQQKQGQSPQLLVYAVTSLADGVPSRFSGSGSGTQYSLKINSLQSEDFGTYYCQHFWGTPYTFGGGTKLEIK | 7860 ± 1750 ng/mL |
| 1G1: RXFP2 monoclonal antibody from hybridoma, recombinantly expressed in a rat IgG2b backbone (antibody, V domains shown) VH: EVQLQQSGPELVKPGASVKMSCKASGYTFTDYNMHWVKQKPGQGLEWIGYINPYNDGTEYNEKFKGKATLTSDKSSSTAYMDLSSLTSEDSAVYYCARGLWFAMNYWGQGTSVTVSS VL: DIQMTQSSSSFSVSLGDRVTITCKASEDIYNRLAWYQQKPGNTPRLLISGATILETGVPSRFSGSGSGKDYTLSIISLQTEDVATYYCQQYWIIPPTFGGGTKLEIK | 9820 ± 766 ng/mL |
| 3F3: RXFP2 monoclonal antibody from hybridoma, recombinantly expressed in a rat IgG2b backbone (antibody, V domains shown) VH: QVQLQQPGSVLVRPGASVKLSCKASGYIFTSYWMHWVKQRPGQGLEWIGEIYPNSGRTSYNEKFKGKATVTVDTSSSTAYVDLSSLTSEDSAVYYCASGGHWFAYWGQGTLVTVSA VL: DIQMTQSSSSFSVSLGDRVTITCKASEDIYNRLAWYQQKPGNAPRLLISGATSLEAGVPSRFSGSGSGKDYTLSITSLQTEDVSTYYCQQYWITPYTFGGGTKLEIK | 2350 ± 858 ng/mL |
| 4G6: Human/rat cross-reactive RXFP2 monoclonal antibody, rat IgG2b backbone; binds the LDLa domain (antibody, V domains shown) VH: EVQLQQSGPELVKPGASVKLSCKASGYTFTSYVMHWVKQKPEQGLEWIGYKNPSNDGIKYNEKFKGKATLTSDKSSNIAYMELFSLTSEDSAVYYCARSDFGSVWAMDYWGQGTSVTVSS VL: SIVMTQTPKFLLVSAGDRVTITCKASQSVNDDIVWYQQKPGQSPKLLIYYASNRYTGVPDRFTGSGYGTDFTFTISTVQAGDLAVYFCQQDYSSPFTFGSGTKLEIK | 4150 ± 1200 ng/mL |
